System: L1210 leukemia ip in BDF1 mice, survival T/C
experimental_protocol: NCI In Vivo Anticancer Drug Screen. Data for tumor model L1210 Leukemia (intraperitoneal) in B6D2F1 (BDF1) mice
experimental_conditions: endpoint: mean survival time; dose: 25.0 mg/kg/injection; schedule: Q04DX002 (ip); vehicle: Klucel (hydroxypropylcellulose) (HPC); higher = longer survival
Toxic doses and inconclusive results are not listed.
Each record here notes measured T/C.

Example compounds with recorded T/C:
smiles_structure	result
O=C(Nc1ccccc1)Oc1c(Cl)cc(Cl)cc1Cl	95 % of control
CN1CCN(c2ccc([N+](=O)[O-])c3no[n+]([O-])c23)CC1	104 % of control
O=C1C=CC(=O)c2[nH]c(-c3ccccc3)cc21	105 % of control

Shifting focus to the compound that follows.
Prompt line: Given the compound COc1nncc(-c2cnnc(OC)n2)n1 , what is its reported T/C?
Response line: 105 % of control

Source listed as PubChem BioAssay AID248.
